- Test system: CAMA1
- method description: 10-day CellTiter-Glo antiproliferative assay, CAMA1
- Assay type: cell-based
- condition label: Homo sapiens, CAMA-1, 240 h, 10-day exposure, AR High, ER +, Her2 −
endpoint name: IC50

>  <smiles text>
COC(=O)N1c2ccc3c(nc([C@H](O)c4ccccc4)n3[C@@H]3CCC[C@@H](C(=O)O)C3)c2CC[C@@H]1C

>  <result>
< 0.2 µM

$$$$
>  <smiles text>
COC(=O)N1c2ccc3c(nc(Cc4ccccc4)n3[C@@H]3CCC[C@@H](C(=O)O)C3)c2CC[C@@H]1C

>  <result>
< 0.2 µM

$$$$
>  <smiles text>
COC(=O)N1c2ccc3c(nc([C@H](O)c4cc(F)ccc4OC)n3[C@@H]3CCC[C@@H](C(=O)O)C3)c2CC[C@@H]1C

>  <result>
< 0.2 µM

$$$$

Cited source for all entries: patent US20240016795A1
